- TEST_DETAILS: Toxicity liver stage against HepG2, at 10uM
- Format: cell-based
- Parameters: test concentration 10 uM, cell line HepG2-A16-CD81EGFP
- CONDITION_SET: human, HepG2-A16-CD81EGFP cells; read-out: INHIBITION
MEASURE: cytotoxicity at 10 µM (%)
Expressed in %, but write only the number.

INPUT: What does the data say about its cytotoxicity at 10 µM? Entry: CC(=O)N1CCCN(S(=O)(=O)c2cc3ccccc3o2)CC1
OUTPUT: 18.8

INPUT: What about CC(C)N1CC(C(=O)NCc2ccc(S(=O)(=O)N(C)C)cc2)CC1=O (stereo unspecified) ?
OUTPUT: 4.44

INPUT: // query: O=C1CC(c2ccncc2)c2c(c(C(=O)O)cn2-c2ccccc2)N1 (stereo unspecified)
OUTPUT: -3.7

INPUT: Also need CNC(=O)N1CCC(NC(=O)c2cnn(C)c2)CC1 , thanks.
OUTPUT: -1.35

INPUT: Proceed to O=C(O)COc1ccc(CN2CCCC(Cc3cccnc3)C2)cc1 (stereo unspecified)
OUTPUT: -4.98

INPUT: And for Cc1nn(C)c(N(C)C)c1CNC1CCOc2c(F)cccc21 (stereo unspecified) ?
OUTPUT: -13.9

INPUT: What about COCCC(=O)N1CCC2(CCN(Cc3cccc(F)c3)CC2)C1 ?
OUTPUT: -75.9

INPUT: Now give it for Oc1nnc(-c2ccccc2)c2sc(N3CCCCC3)nc12 too.
OUTPUT: -1.81

INPUT: Same question for COCCN1CC(C(=O)N(CCN(C)C)Cc2ccc(C)s2)CC1=O (stereo unspecified) please.
OUTPUT: 1.98

INPUT: Cc1cn2c(n1)CCC(NC(=O)c1[nH]ncc1Br)C2 (stereo unspecified) , same question.
OUTPUT: -6.49

INPUT: Can you check CCOCCC(=O)N(C)Cc1noc(C(C)C)n1 next?
OUTPUT: 6.13

INPUT: Can you handle O=C(Nc1ccccc1)N1CCc2nc(C(=O)N3CCCC3)sc2CC1 next?
OUTPUT: 11.3

INPUT: Now consider CCOC(=O)N1CCN(C(=O)c2cc(-c3ccccc3F)on2)CC1 and answer again.
OUTPUT: 1.14

INPUT: Then CCC(C)NS(=O)(=O)Cc1cccc(NC(=O)C2=CCCC2)c1 (stereo unspecified) ?
OUTPUT: -0.217

INPUT: Thanks! And CCC(CO)N(Cc1ccsc1)Cc1ccccc1C#N (stereo unspecified) ?
OUTPUT: 9.64

INPUT: Another compound to check: Cc1cc2nc(CO[C@H]3CN(C4CCCCC4)C[C@H]3F)[nH]c2cc1C
OUTPUT: -17.5

INPUT: Next record, please: O=C(COc1ccc2c(c1)CCC2)NCc1ccco1
OUTPUT: 2.98

INPUT: Check CCC(C)NC(=O)Nc1cccc(OCC#N)c1 (stereo unspecified) too.
OUTPUT: -0.146

INPUT: Also CCNc1cc2c(nn1)CCN(C(=O)c1ccc(CNC(C)=O)o1)C2 ?
OUTPUT: -10.8

INPUT: What do we get for COC(=O)C(NC(=O)COC1CCCCC1)c1ccccc1 (stereo unspecified) ?
OUTPUT: -21.4

INPUT: Now the compound CN(C)CC1CSCCCN1S(=O)(=O)Cc1ccc(C(F)(F)F)cc1 (stereo unspecified)
OUTPUT: -5.36

INPUT: Let us now turn to N#CC1(NC(=O)CNCCn2cccn2)CCCCC1
OUTPUT: -7.5

INPUT: Field entry: CCCn1cc(C(=O)NC2CCC(n3cnnc3)CC2)c(C)n1 (stereo unspecified)
OUTPUT: 0.642

INPUT: Now try O=c1c(-c2ccnc(NC3CCOCC3)n2)cnc2sc(Cl)cn12 .
OUTPUT: -0.962

INPUT: Likewise for CC(=O)NCc1ccc(C(=O)N2CCCC2c2cnn(C)c2)o1 (stereo unspecified) ?
OUTPUT: -8.67

INPUT: Also N#Cc1c(C2CC2)cc(-c2ccc(O)cc2)nc1N , if possible.
OUTPUT: -4.72

INPUT: Queued: CC(=O)N1CCN(c2ccc(Cl)nn2)C(=O)C1
OUTPUT: 6.69

INPUT: And what about the compound CCn1cnnc1CNS(=O)(=O)N1CCCC1c1ccc(C)o1 (stereo unspecified) ?
OUTPUT: -144

INPUT: Another: CC(=O)N1CC[C@@H]2O[C@@H](COCc3csc(C)n3)CC[C@@H]21
OUTPUT: -71.7

INPUT: Please do the same for Cc1ccc2c(c1)C1(CCNCC1)CC2N1CCOCC1 (stereo unspecified) as well.
OUTPUT: -134

INPUT: How about CCC[C@@H]1CN(Cc2c[nH]c(CC3CCCC3)n2)C[C@H]1C(=O)O ?
OUTPUT: 4.86

INPUT: Moving on to the next compound: CN(C)C(=O)C1OC2(CCN(C(=O)N(C)C)CC2)c2ccccc21 (stereo unspecified)
OUTPUT: 8.04

INPUT: Request: Cc1cc(C)n(C2CN(CC(=O)NCc3ccccn3)C2)n1
OUTPUT: -2.92

INPUT: Also, Cn1cc(CCNC(=O)C2(c3cccc(Cl)c3)CC2)cn1 please.
OUTPUT: 0.33

INPUT: Same for O=C(c1ccccn1)N(CCO)Cc1cc(Br)ccc1F
OUTPUT: 9.91

INPUT: Again, but for CCc1nc(CN(C)C2CCN(CCNS(=O)(=O)CC)C2)no1 (stereo unspecified)
OUTPUT: -2.14

INPUT: Proceed to Cc1ccc(N2CCCC3(CCN(C(=O)C4CC4)C3)C2)nn1 (stereo unspecified)
OUTPUT: -109

INPUT: And what about the compound Cc1nc(-c2ccccc2)n(CC(=O)N(C(C)C)C(C)C)n1 ?
OUTPUT: -4.57

INPUT: What do we get for O=C(NCCCO)c1cnc(-c2ccccc2)nc1O ?
OUTPUT: -7.11

INPUT: Lookup CCCN1CCC(CNC(=O)C2(c3cc(C)cc(C)c3)CCC2)C1 (stereo unspecified)
OUTPUT: -0.185

INPUT: Input NC(=O)COc1cccc(C(=O)Nc2cnc3n2CCCC3)c1
OUTPUT: 18.2
